Test system: Saccharomyces cerevisiae;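 also: PSI is a weighted mean of sequencing reads over stability bins, variants kept only with over 10 reads, mCherry proximal and sfGFP distal, peptide attached via GGGS linker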
assay.notes: protein stability index of tFT-peptide fusion (C-terminal peptide) (PSI (0-1 scale)); higher = more stable (slower turnover)
test.conditions: genetic background: das1 deletion; temperature: 30 C
Rule: protein stability index under 0.4 gives -1, otherwise 1.

PTLPASLHSIYP
1
CSFHFSLFFLRV
-1
VLDFSVPRHVLH
1
RLVPFMAVRVLF
1
MLSVVSFVSCTC
-1

Is reported protein stability index greater than or equal to 0.4 here: PISNMSIILLFL
1

Is reported protein stability index greater than or equal to 0.4 here: FGPVLLVSFLFS
-1

Is reported protein stability index greater than or equal to 0.4 here: YCILGSYRLCVG
-1

Is reported protein stability index greater than or equal to 0.4 here: WVSFFILYCVYR
-1

Is reported protein stability index greater than or equal to 0.4 here: GCWRVELLVFMC
-1
